Give median fluorescence fold over isotype control for every item shown.
# studyTarget: SARS-CoV-2 full length spike protein, wild type, expressed on the surface of CHO cells (SARS-CoV-2, UniProt P0DTC2 14-1273)
# number then unit; no other words

binder="antibody 516 (antibody, V domains shown) VH: QVELQQWGAGLLKPSETLSLTCAVYGGSFSGYYWSWIRQPPGKGLEWIGEINHSGSTNYNPSLKSRVTISIDTSKNQFSLKLSSVTAADTAVYYCARGTTVTTFFAPHWYFDLWGRGTLVTVSS VL: QSALTQPASVSGSPGQSITISCTGTSSDVGGYNYVSWYQQHPGKAPKLMIYDVSNRPSGVSNRFSGSKSGNTASLTISGLQAEDEADYYCSSYTSSSTPYVFGTGTKVTVL" reportedvalue="3.31 fold over isotype"

Now consider a different binder.
Record summary for antibody 510 (antibody, V domains shown) VH: QVQLQESGPGLVKPSQTLSLTCTVSGGSISSGSYYWSWIRQPAGKGLEWIGRIYTSGSTNYNPSLKSRVTISVDTSKNQFSLKLSSVTAADTAVYYCAREGQWLYRFDYWGQGTLVTVSS VL: QSALTQPASVSGSPGQSITISCTGTSSDVGNYDLVSWYQQHPGKAPKLVIYGVTKRPSGVSNRFSGSKSGNTASLTISGLQAEDEADYYCCSYATGDTSVFGTGTKVTVL : reported median fluorescence fold over isotype control = 1.18 fold over isotype
